target: LATS2 (Homo sapiens); experiment: RBC HotSpot kinase assay (33P-ATP, P81 filter-binding), LATS2; format: biochemical; details: Table 32, biochemical kinase assay; read-out: LATS2 IC50
test_readout: IC50 (nM)

>>> reported("O=C(CO)NCC(O)(c1ccc(Cl)cc1)c1ccc(-c2ccnc3[nH]cc(F)c23)cc1 (stereo not shown)")
4
>>> reported("CC(=O)NCC(O)(c1ccc(Cl)cc1)c1ccc(-c2ccnc3[nH]ccc23)cc1 (stereo not shown)")
5.1
>>> reported("O=C(NCC(O)(c1ccc(Cl)cc1)c1ccc(-c2ccnc3[nH]ccc23)cc1)[C@@H]1CCCN1 (stereo partly shown)")
4.6

(1) NCC(O)(c1ccc(Cl)cc1)c1ccc(-c2ccnc3[nH]ccc23)cc1 (stereo not shown)
(2) O=C(CO)NCC(O)(c1ccc(Cl)cc1)c1ccc(-c2ccnc3[nH]ccc23)cc1 (stereo not shown)
Q: Kindly identify which of 1 and 2 has the larger recorded IC50 value. Write the label of whichever entry you select.
Ans: 2

(I) CC(C)(N)C(=O)NCC(O)(c1ccc(Cl)cc1)c1ccc(-c2ccnc3[nH]ccc23)cc1 (stereo not shown)
(II) NCC(O)(c1ccc(Cl)cc1)c1ccc(-c2ccnc3[nH]cc(Br)c23)cc1 (stereo not shown)
Q: Kindly identify which of I and II has the larger recorded IC50 value. Write the label of whichever entry you select.
Ans: II

(a) CN(CC(O)(c1ccc(Cl)cc1)c1ccc(-c2ccnc3[nH]ccc23)cc1)C(=O)CN (stereo not shown)
(b) O=C(CP(=O)(O)O)NCC(O)(c1ccc(Cl)cc1)c1ccc(-c2ccnc3[nH]ccc23)cc1 (stereo not shown)
Q: Kindly identify which of a and b has the larger recorded IC50 value. Write the label of whichever entry you select.
Ans: b

(A) O=C(NCC(O)(c1ccc(Cl)cc1)c1ccc(-c2ccnc3[nH]ccc23)cc1)[C@H]1CCCN1 (stereo partly shown)
(B) NCC(=O)NCC(O)(c1ccc(Cl)cc1)c1ccc(-c2ccnc3[nH]cc(Cl)c23)cc1 (stereo not shown)
Q: Hello, I am sorting some records. Could you say if A or B has the smaller IC50 value? Write the label of whichever entry you select.
Ans: B

====

biological target: LATS2 (Homo sapiens, UniProt Q9NRM7); assay: RBC HotSpot kinase assay (33P-ATP, P81 filter-binding), LATS2; format: biochemical; conditions: Table 28, biochemical kinase assay; read-out: LATS2 IC50
Sequence (Q9NRM7 whole entry): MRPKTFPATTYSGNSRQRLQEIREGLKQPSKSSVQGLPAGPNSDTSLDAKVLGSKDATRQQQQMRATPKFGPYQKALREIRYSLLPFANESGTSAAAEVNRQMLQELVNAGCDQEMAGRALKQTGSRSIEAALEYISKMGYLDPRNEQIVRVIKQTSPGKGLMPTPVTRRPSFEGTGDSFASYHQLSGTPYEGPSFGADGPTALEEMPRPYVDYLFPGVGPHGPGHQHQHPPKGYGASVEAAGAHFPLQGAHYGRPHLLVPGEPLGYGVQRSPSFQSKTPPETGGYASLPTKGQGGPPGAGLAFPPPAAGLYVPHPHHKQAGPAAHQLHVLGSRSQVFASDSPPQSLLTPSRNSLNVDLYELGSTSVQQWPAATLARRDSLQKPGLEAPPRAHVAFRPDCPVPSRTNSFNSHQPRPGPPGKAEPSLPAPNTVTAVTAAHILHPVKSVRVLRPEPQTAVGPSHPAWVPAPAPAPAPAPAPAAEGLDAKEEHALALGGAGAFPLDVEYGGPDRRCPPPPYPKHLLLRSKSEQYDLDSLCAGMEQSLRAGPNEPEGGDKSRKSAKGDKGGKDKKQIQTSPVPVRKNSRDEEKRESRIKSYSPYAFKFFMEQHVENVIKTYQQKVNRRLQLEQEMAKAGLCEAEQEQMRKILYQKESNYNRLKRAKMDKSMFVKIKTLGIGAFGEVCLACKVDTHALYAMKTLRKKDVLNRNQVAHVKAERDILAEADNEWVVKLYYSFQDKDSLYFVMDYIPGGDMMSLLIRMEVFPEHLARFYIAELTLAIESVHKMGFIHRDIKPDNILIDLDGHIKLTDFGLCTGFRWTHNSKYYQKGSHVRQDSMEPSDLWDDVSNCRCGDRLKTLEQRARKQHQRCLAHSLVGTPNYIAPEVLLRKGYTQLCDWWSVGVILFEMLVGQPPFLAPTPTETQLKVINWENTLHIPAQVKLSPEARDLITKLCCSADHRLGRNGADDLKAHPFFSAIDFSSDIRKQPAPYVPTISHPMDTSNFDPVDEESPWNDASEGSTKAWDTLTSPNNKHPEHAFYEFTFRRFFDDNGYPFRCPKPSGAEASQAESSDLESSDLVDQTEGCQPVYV
pIC50: −log10 of the molar value.
test_readout: pIC50

Record excerpt, results attached:
>>> reported("C[C@@H]1CN(C(=O)C2CC(C)(C)C2)C[C@H](C)C1(O)c1c(F)cc(-c2ccnc3[nH]cc(F)c23)cc1F (some centres unmarked)")
7.22
>>> reported("NCc1ccc(-c2ccnc3[nH]ccc23)cc1C(F)(F)F")
7.35
>>> reported("COC(=O)c1c[nH]c2nccc(-c3ccc(CN)c(-c4ccccc4)c3)c12")
7.62
>>> reported("CCC1(c2ccc(-c3ccnc4[nH]cc(F)c34)cc2Cl)CCNCC1")
7.47
>>> reported("CC1(c2ccc(-c3ccnc4[nH]ccc34)cc2)CCNCC1")
7.37
>>> reported("CC(C)(C)Nc1cc(-c2ccnc3[nH]cc(F)c23)ccc1C1CCNCC1")
6.92
>>> reported("OC1(c2c(F)cc(-c3ccnc4[nH]cc(F)c34)cc2F)CC2(CNC2)C1")
7.21
>>> reported("C[C@@H]1CN(C2CC3(CNC3)C2)C[C@H](C)[C@@]1(O)c1c(F)cc(-c2ccnc3[nH]cc(F)c23)cc1F")
8.42
>>> reported("COC(=O)c1c[nH]c2nccc(-c3ccc(C4(O)CCNCC4)cc3)c12")
7.74
>>> reported("OC1(c2ccc(-c3ccnc4[nH]cc(Br)c34)cc2Cl)C[C@H]2CC[C@@H](C1)N2 (some centres unmarked)")
8.05

(P) NCc1ccc(-c2ccnc3[nH]cc(-c4ccccc4F)c23)cc1
(Q) OC1(c2ccc(-c3ccnc4[nH]cc(Br)c34)cc2)C[C@H]2CC[C@@H](C1)N2 (some centres unmarked)
(R) C[C@@H]1CN(C2COC2)C[C@H](C)C1(O)c1cnc(-c2ccnc3[nH]cc(F)c23)cc1F (some centres unmarked)
Q: In this exercise, place the 3 compounds in ascending sequence of their recorded pIC50. Form entry: labels listed in requested order.
Ans: R, P, Q
(R: 7.10, P: 8.00, Q: 9.05)

(A) C[C@@H]1CNC[C@H](C)[C@@]1(O)c1ccc(-c2ccnc3[nH]cc(F)c23)cc1C(F)(F)F
(B) C[C@@H]1CN(C(=O)[C@H]2CCCN2)C[C@H](C)C1(O)c1c(F)cc(-c2ccnc3[nH]cc(F)c23)cc1F (some centres unmarked)
(C) NCc1ccc(-c2ccnc3[nH]cc(Cl)c23)cc1-c1ccccc1
(D) COC(=O)c1c[nH]c2nccc(-c3ccc(C4CCNCC4)c(-c4ccc(CN)cc4)c3)c12
(E) CC(C)N1C[C@@H](C)[C@](O)(c2ccc(-c3ccnc4[nH]cc(F)c34)cc2Cl)[C@@H](C)C1
Q: In this exercise, place the 5 compounds in ascending sequence of their recorded pIC50. Form entry: labels listed in requested order.
Ans: D, C, A, B, E
(D: 7.30, C: 7.62, A: 7.97, B: 8.33, E: 8.85)

====

target: LATS1 (Homo sapiens); assay: RBC HotSpot kinase assay (33P-ATP, P81 filter-binding), LATS1; type: biochemical; details: Table 28, biochemical kinase assay; read-out: LATS1 IC50
Sequence (O95835 whole entry): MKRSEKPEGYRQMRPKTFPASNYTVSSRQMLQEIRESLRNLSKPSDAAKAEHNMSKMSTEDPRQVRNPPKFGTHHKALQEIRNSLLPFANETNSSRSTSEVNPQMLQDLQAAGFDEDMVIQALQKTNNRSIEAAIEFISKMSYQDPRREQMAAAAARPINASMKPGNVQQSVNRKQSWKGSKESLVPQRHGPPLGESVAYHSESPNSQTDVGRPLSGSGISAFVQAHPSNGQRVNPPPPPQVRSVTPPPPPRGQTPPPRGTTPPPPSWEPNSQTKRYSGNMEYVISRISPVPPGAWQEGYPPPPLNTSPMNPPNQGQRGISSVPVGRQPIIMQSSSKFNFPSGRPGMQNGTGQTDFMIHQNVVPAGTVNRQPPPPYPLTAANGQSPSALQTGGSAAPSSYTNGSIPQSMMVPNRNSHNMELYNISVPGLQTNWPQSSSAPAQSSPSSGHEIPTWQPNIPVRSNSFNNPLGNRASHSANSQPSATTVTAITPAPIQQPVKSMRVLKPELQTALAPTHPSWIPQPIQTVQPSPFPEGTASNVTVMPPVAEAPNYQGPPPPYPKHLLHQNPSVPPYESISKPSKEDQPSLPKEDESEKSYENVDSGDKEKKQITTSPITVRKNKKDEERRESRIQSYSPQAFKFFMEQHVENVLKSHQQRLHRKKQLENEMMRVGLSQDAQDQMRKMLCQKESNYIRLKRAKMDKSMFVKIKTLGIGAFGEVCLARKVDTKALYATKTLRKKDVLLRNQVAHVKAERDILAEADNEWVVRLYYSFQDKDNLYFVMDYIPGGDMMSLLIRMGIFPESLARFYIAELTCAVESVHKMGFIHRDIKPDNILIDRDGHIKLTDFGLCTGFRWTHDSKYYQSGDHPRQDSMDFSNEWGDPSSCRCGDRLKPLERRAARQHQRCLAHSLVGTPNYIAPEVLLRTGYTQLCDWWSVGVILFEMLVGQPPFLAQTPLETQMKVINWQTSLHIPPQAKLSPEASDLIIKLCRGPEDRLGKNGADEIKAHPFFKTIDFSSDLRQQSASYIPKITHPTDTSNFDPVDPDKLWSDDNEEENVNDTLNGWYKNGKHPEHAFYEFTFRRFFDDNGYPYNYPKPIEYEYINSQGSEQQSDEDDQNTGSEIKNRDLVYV
test_readout: IC50 (nM)

Record excerpt, results attached:
>>> reported("CC(C)(O)C#Cc1cc(-c2ccnc3[nH]ccc23)ccc1CN")
20
>>> reported("C[C@@H]1CN(C)C[C@H](C)[C@@]1(O)c1c(F)cc(-c2ccnc3[nH]cc(F)c23)cc1F")
10.1

(P) C[C@@H]1CN(C2CCS(=O)(=O)CC2)C[C@H](C)C1(O)c1cnc(-c2ccnc3[nH]cc(F)c23)cc1F (stereo partly shown)
(Q) COc1cc(-c2ccnc3[nH]ccc23)ccc1C1CCNCC1
Q: Kindly identify which of P and Q has the larger recorded IC50 value. Write the label of whichever entry you select.
Ans: P

(1) Cc1cc(-c2ccnc3[nH]cc(F)c23)cc(F)c1[C@@]1(O)[C@H](C)CN(C(=O)[C@@H]2CCCN2)C[C@@H]1C
(2) O=C([C@@H]1CCCN1)N1CCC(O)(c2ccc(-c3ccnc4[nH]cc(F)c34)cc2)CC1
Q: Kindly identify which of 1 and 2 has the larger recorded IC50 value. Write the label of whichever entry you select.
Ans: 2

(A) Fc1c[nH]c2nccc(-c3ccc(C4CCNCC4)c(Cl)c3)c12
(B) NCc1ccc(-c2ccnc3[nH]ccc23)c(F)c1
Q: Kindly identify which of A and B has the larger recorded IC50 value. Write the label of whichever entry you select.
Ans: B

(a) COC(=O)c1c[nH]c2nccc(-c3ccc(C(C)(C)N)cc3)c12
(b) CN1C[C@H]2CC[C@@H](C1)C2(O)c1ccc(-c2ccnc3[nH]cc(F)c23)cc1Cl (stereo partly shown)
(c) CN1CC2CC(C1)C2(O)c1ccc(-c2ccnc3[nH]cc(F)c23)cc1Cl (stereo not shown)
Q: In this exercise, place the 3 compounds in ascending sequence of their recorded IC50. Form entry: labels listed in requested order.
Ans: a, c, b

(a) CC1CC(O)(c2ccc(-c3ccnc4[nH]cc(Br)c34)cc2Cl)CC(C)N1 (stereo not shown)
(b) Cc1nc(-c2ccnc3[nH]cc(F)c23)ccc1C1(O)CCNCC1
Q: Hello, I am sorting some records. Could you say if a or b has the smaller IC50 value? Write the label of whichever entry you select.
Ans: a

(A) c1ccc(CNCc2ccc(-c3ccnc4[nH]ccc34)cc2)cc1
(B) Fc1c[nH]c2nccc(-c3ccc(C4(c5nnco5)CCNCC4)cc3)c12
(C) C[C@@H]1CNC[C@H](C)[C@@]1(O)c1c(F)cc(-c2ccnc3[nH]cc(F)c23)cc1F
Q: In this exercise, place the 3 compounds in ascending sequence of their recorded IC50. Form entry: labels listed in requested order.
Ans: C, A, B

(P) OC1(c2ccc(-c3ccnc4[nH]cc(Br)c34)cc2Cl)CNC1
(Q) CC(C)(N)c1ccc(-c2ccnc3[nH]ccc23)cc1
(R) Cc1cc(-c2ccnc3[nH]cc(Cl)c23)cc(F)c1[C@@]1(O)[C@H](C)CN(C2CCS(=O)(=O)CC2)C[C@@H]1C
(S) C[C@@H]1CNC[C@H](C)C1(O)c1cnc(-c2ccnc3[nH]cc(F)c23)cc1-c1ccccc1 (stereo partly shown)
(T) FC(F)(F)c1cc(C2CCNCC2)ccc1-c1ccnc2[nH]ccc12
Q: In this exercise, place the 5 compounds in ascending sequence of their recorded IC50. Form entry: labels listed in requested order.
Ans: R, P, Q, S, T
(R: 4.2 nM, P: 12 nM, Q: 25.4 nM, S: 146 nM, T: 1570 nM)

(P) OC1(c2ccc(-c3ccnc4[nH]cc(Br)c34)cc2Cl)C2CNCC1C2 (stereo not shown)
(Q) CN1CC(O)(c2ccc(-c3ccnc4[nH]cc(F)c34)cc2Cl)C1
Q: Hello, I am sorting some records. Could you say if P or Q has the smaller IC50 value? Write the label of whichever entry you select.
Ans: P
(P: 10.2 nM, Q: 108 nM)
